# Assay Procedure: Metabolic stability in mouse liver microsomes
# Assay type: in vitro ADME
# Test Settings: read-out: Scale-up CLint
# Description: Main solutions were prepared according to Table 9 below: (II) Two Separate Experiments were Performed • a) With cofactor (NADPH): 25 μL of 10 mM NADPH was added to the culture broth. […] 100 μL of supernatant was taken and mixed with 100 μL of ultrapure water, equally divided and analyzed with LC-MS/MS. All calculations were conducted using Microsoft Excel. The peak area was determined from the extracted ion chromatogram. […]
Test Readout: CLint scaled at 1 μM (mL/min/kg)

CC(C)NP(=O)(OCc1ccc([N+](=O)[O-])c(Oc2ccc(-c3ccc(F)cc3)c(F)c2)c1)OCC1OC(C2N=CC(N)=NC2=O)C(F)(F)C1O (stereo not shown): 246
